tested_target: HER2 A775_G776insYVMA (Homo sapiens, UniProt P04626, INS775YVMA)
Sequence (P04626 with tags, fused parts or gaps INS775YVMA): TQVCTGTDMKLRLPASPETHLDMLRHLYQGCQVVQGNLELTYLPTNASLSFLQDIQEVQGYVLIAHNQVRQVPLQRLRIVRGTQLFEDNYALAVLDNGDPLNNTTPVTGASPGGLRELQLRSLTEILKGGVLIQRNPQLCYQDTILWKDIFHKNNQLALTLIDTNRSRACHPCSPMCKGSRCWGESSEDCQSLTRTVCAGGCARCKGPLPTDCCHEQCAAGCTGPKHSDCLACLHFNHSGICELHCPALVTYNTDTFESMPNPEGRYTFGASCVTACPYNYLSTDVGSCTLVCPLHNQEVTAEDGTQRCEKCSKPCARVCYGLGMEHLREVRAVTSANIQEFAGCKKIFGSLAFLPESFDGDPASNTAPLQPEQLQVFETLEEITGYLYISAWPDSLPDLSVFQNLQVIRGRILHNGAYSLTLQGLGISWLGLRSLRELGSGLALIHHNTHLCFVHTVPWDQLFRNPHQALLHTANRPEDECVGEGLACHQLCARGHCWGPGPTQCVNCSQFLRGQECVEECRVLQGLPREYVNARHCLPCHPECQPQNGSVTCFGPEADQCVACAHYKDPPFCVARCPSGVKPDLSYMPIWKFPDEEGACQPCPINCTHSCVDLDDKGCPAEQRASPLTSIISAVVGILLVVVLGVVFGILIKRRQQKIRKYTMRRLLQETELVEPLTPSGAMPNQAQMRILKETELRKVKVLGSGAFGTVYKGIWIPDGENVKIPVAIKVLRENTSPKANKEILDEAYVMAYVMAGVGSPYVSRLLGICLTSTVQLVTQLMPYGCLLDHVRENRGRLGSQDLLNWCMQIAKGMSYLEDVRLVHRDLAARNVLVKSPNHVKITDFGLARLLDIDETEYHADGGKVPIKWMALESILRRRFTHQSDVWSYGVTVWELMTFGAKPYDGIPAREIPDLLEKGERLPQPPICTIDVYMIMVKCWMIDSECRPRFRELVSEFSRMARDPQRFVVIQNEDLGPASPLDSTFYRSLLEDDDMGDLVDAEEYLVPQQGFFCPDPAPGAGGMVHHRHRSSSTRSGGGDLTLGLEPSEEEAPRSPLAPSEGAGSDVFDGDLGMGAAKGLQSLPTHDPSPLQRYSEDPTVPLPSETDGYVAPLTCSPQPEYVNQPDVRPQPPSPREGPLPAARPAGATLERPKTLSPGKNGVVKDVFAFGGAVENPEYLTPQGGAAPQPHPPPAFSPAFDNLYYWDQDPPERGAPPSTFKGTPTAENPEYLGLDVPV
experimental_protocol: In vitro cell based assay, PD IC50, 3T3_YVMA
measured_attribute: pIC50
One number for each entry, as −log10 of the molar value.

C=CC(=O)Nc1cc(Nc2nccc(Nc3cc(Cl)c(F)cc3C(C)(C)O)n2)c(OC)cc1N1CC[C@@H](N(C)C)C1 [Form B]    8.49

Problem: What measured pIC50 goes with C=CC(=O)Nc1cc(Nc2nccc(Nc3cc(Cl)c(F)cc3C(C)(C)O)n2)c(OC)cc1N1CC[C@@H](N(C)C)C1 [Form A] ?
Result: 8.42
